assay target: Cholinesterase (Equus caballus, UniProt P81908)
Sequence (P81908 whole entry): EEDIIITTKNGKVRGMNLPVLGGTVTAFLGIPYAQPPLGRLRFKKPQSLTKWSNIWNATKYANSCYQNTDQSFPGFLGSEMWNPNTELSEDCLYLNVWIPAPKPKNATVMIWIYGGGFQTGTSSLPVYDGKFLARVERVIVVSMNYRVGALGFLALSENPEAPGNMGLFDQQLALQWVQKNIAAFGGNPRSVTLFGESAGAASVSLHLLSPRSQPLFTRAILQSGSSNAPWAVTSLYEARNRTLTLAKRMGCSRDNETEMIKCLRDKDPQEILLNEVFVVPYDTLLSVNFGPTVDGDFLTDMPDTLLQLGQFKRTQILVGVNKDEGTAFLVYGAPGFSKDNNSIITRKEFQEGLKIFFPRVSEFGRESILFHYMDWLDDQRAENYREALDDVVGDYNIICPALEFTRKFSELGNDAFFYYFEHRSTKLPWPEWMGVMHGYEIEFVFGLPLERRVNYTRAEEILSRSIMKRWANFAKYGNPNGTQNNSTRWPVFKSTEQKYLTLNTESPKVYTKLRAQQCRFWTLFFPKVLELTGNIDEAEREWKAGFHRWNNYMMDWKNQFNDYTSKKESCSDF
protocol summary: Inhibition of equine serum butyrylcholinesterase using […] as substrate preincubated for 4.5 mins followed by substrate addition measured after 2.5 mins by Ellman's spectrophotometric method
metric name: pIC50
Answers are plain numbers, as −log10 of the molar value.

Before answering, review these 5 worked examples.
molecule: CN1Cc2cc(O)ccc2N(C)C1c1cc[nH]c1 (configuration not stated)
metric name: pIC50
data value: 4.82
//
molecule: CN1c2ccc(O)cc2CN(Cc2ccccc2)C1c1ccccc1 (configuration not stated)
metric name: pIC50
data value: 4.83
//
molecule: CN1Cc2cc(O)ccc2N(C)C1c1ccc(Cl)cc1 (configuration not stated)
metric name: pIC50
data value: 4.86
//
molecule: COc1cccc(C2N(C)Cc3cc(O)ccc3N2C)c1 (configuration not stated)
metric name: pIC50
data value: 5.11
//
molecule: CN1Cc2cc(O)ccc2N(C)C1c1cccc(Cl)c1 (configuration not stated)
metric name: pIC50
data value: 5.68

Lab note: each molecule below needs its pIC50 filled in.
1. CN1Cc2cc(O)ccc2N(C)C1c1c(Cl)cccc1Cl (configuration not stated)
2. Oc1ccc2nc(-c3ccccc3)ncc2c1
3. CN1Cc2cc(O)ccc2N(C)C1c1cccs1 (configuration not stated)

1: 5.15; 2: 4.01; 3: 4.20

Lab note: each molecule below needs its pIC50 filled in.
1. CN1Cc2cc(O)ccc2N(C)C1c1ccccc1Cl (configuration not stated)
2. CC(C)N1Cc2cc(O)ccc2N(C)C1c1ccccc1 (configuration not stated)
3. CN1Cc2cc(O)ccc2N(C)C1c1ccc(C(F)(F)F)cc1 (configuration not stated)
4. CN1Cc2cc(O)ccc2N(C)C1c1ccccc1 (configuration not stated)

1: 4.25; 2: 4.25; 3: 4.19; 4: 4.40

###

Answer each item with its documented IC50.
assay target: Cholinesterase (Equus caballus, UniProt P81908)
protocol summary: Inhibition of equine serum butyrylcholinesterase using […] as substrate preincubated for 30 mins followed by substrate addition measured after 2.5 mins by Ellman's spectrophotometric method

molecule: CCCCCCCNC(=O)Oc1ccc2c(c1)CN(C)C(c1ccc(C(F)(F)F)cc1)N2C (stereo not drawn)
IC50: 2700 nM

molecule: CCCCCCCNC(=O)Oc1ccc2c(c1)CN(C)C(c1ccc(F)cc1)N2C (stereo not drawn)
IC50: 44 nM

--- query ---
Recall the recorded IC50 for CCCCCCCNC(=O)Oc1ccc2c(c1)CN(C)C(c1cccc(Cl)c1)N2C (stereo not drawn) with Cholinesterase (Equus caballus, UniProt P81908) and state it. 96 nM

###

protocol summary: Antioxidant activity assessed as trolox equivalents of AAPH radical scavenging activity preincubated for 15 mins followed by AAPH addition measured every 60 secs for 90 mins by ORAC assay
Format: physicochemical
run conditions: 1.5 h
Binary call on Activity with cut-off 3 equiv: strictly below means condition met, and equality or higher means condition not met.

molecule: CCCCCCCNC(=O)Oc1ccc2c(c1)CN(C)C(c1ccccc1)N2C (stereo not drawn)
label class: condition met
--
molecule: CCCCCCCNC(=O)Oc1ccc2c(c1)CN(C)C(c1cccs1)N2C (stereo not drawn)
label class: condition met
--
molecule: COc1ccc(C2N(C)Cc3cc(O)ccc3N2C)cc1 (stereo not drawn)
label class: condition not met
--
molecule: CCCCCCCNC(=O)Oc1ccc2c(c1)CN(C)C(c1ccc(OC)cc1)N2C (stereo not drawn)
label class: condition met
--
molecule: CCCCCCCNC(=O)Oc1ccc2c(c1)CN(Cc1ccccc1)C(c1ccccc1)N2C (stereo not drawn)
label class: condition met
--
molecule: CN1c2ccc(O)cc2CN(Cc2ccccc2)C1c1ccccc1 (stereo not drawn)
label class: condition not met

Now for another entry.
hey, is Activity for CN1Cc2cc(O)ccc2N(C)C1c1cccs1 (stereo not drawn) lower than 3 equiv or not? condition not met
